Attribution: PubChem BioAssay

PROTOCOL_NOTES: sensitizers of A549 cells to miR-34 induction, primary screen, imaging, A549 dox-inducible miR-34, nuclei and caspase counts (AID 1347080); also: test concentration not given here
PROTOCOL_CONDITIONS: A549 miR-34 inducible, Hoechst nuclei count, 48 h; measured here: total cells without miR-34 induction
cell count vs 9000: at or above is met, below is not met.

Quick check, cell count >= 9000? CN1CC[C@@]2(C)c3cc(OC(=O)Nc4ccccc4)ccc3N(C)[C@@H]12 met

// inclusive: cell count at least 9000? input: NC(=NCCC[C@H](N)C(=O)O)N[N+](=O)[O-] met

Has Oc1ccc2c3c1OC1c4[nH]c5ccccc5c4C[C@@]4(O)C(C2)N(CC2CC2)CC[C@]314 (stereo not given in full) a recorded cell count greater than or equal to 9000? not met

In plain terms: is recorded cell count at least 9000 for CCCN1CCC[C@H](c2cccc(O)c2)C1 ? met

Is cell count at least 9000? Consider Cn1cc(C(=O)C(=O)N[C@H]2CN3CCC2CC3)c2ccccc21 met

Has CN(N=O)c1cc(O)ccc1O a recorded cell count greater than or equal to 9000? met

Could you verify whether the entry CCCCC/C=C\C/C=C\C/C=C\C/C=C\CCCC(=O)OCCN shows cell count of no less than 9000? not met

Exam item: decide whether the reported cell count for CC(CO)NC(=O)C1C=C2c3cccc4[nH]cc(c34)C[C@H]2N(C)C1 (stereo not given in full) is at least 9000. met

Could you please find out whether CC1=C(O)C(=O)[C@@H]2O[C@@H]2C1=O has cell count that meets 9000 or exceeds it? not met
